tested target: F175Y/Y177F variant (YGF) of zebrafish α1 GlyR (Danio rerio, UniProt O93430, F183Y/Y185F)
assay comment: Whole cell dose-response, YGF mutant
assay context: HEK293A, ± SEM, n≥6 cells
pEC50: −log10 of the molar value.

[
  {
    "compound": "NCC(=O)O [glycine]",
    "pEC50": 4.48
  }
]

====

tested target: UniProt O93430
assay comment: Whole cell dose-response, FL GlyR
Format: cell-based
assay context: FL GlyR, whole cell, HEK293A, -40 mV; ± SEM, n≥6 cells
measure: EC50

[
  {
    "smiles": "NCC(=O)O",
    "endpoint value": "190 µM"
  }
]

====

tested target: FL receptor (full-length zebrafish α1 glycine receptor) (Danio rerio, UniProt O93430)

[
  {
    "smiles": "NCCCC(=O)O",
    "Ki [µM]": 1410
  }
]

====

tested target: Full-length zebrafish α1 GlyR (Danio rerio, UniProt O93430)
Sequence (O93430 25-444): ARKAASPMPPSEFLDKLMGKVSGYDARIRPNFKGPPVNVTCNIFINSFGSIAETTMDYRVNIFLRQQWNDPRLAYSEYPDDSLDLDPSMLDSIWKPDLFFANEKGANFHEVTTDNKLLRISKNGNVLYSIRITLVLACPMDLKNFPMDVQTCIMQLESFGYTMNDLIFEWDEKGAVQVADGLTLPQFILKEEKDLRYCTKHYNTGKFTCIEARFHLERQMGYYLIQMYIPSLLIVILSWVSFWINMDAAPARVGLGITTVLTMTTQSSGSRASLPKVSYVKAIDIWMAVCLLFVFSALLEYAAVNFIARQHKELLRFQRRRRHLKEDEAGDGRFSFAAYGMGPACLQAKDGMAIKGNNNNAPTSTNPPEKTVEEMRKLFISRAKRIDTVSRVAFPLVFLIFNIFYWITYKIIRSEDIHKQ
assay comment: Whole cell dose-response, FL GlyR
Assay type: cell-based
measure: EC50 (mM)

[
  {
    "molecule": "NCCCC(=O)O [GABA, γ-amino butyric acid]",
    "endpoint value": 28.4
  },
  {
    "molecule": "NCCS(=O)(=O)O [taurine]",
    "endpoint value": 1.05
  }
]
